Target: CXCL12_(2), constitutively dimeric CXCL12 variant (locked dimer) (UniProt P48061)
Experiment: NMR titration
measurement_label: Kd (µM)
API: value field is a number in µM; no unit string.

-- ask Entry SDNYTEE (HELM PEPTIDE1{[ac].S.D.N.[O=C([C@H](Cc1ccc(OS(=O)(=O)O)cc1)N[*:1])[*:2]].T.E.E.[am]}$$$$V2.0; SMILES CC(=O)N[C@@H](CO)C(=O)N[C@@H](CC(=O)O)C(=O)N[C@@H](CC(N)=O)C(=O)N[C@@H](Cc1ccc(OS(=O)(=O)O)cc1)C(=O)N[C@H](C(=O)N[C@@H](CCC(=O)O)C(=O)N[C@@H](CCC(=O)O)C(N)=O)[C@@H](C)O) [9SDNsYTEE15, sTyr12 sulfopeptide of CXCR4] has what Kd?
-- reply 266
